system: DERL-7 (IL-2 2.5 ng/mL); assay: percent inhibition of viability; higher = more inhibition; conditions: 72 h; 10000 nM;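 note: normalised to DMSO-only wells as negative and benzethonium chloride as positive control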
In this section, each of the molecules is paired with its reported percent inhibition of viability.
MEASURE: percent inhibition of viability (%)

# MOLECULE, TARGET OR TEST SYSTEM, RESULT UNITS, REPORTED VALUE
measured = [
    ("O=C(O)CC1CC(c2ccccc2)=NO1 (stereo unspecified) [VGX-1027] (max concentration tested 10000 nM)", "DERL-7 (IL-2 2.5 ng/mL)", "%", -6.46),
    ("COc1cc(Nc2ncc3c(n2)-c2ccc(Cl)cc2C(c2c(F)cccc2OC)=NC3)ccc1C(=O)O [Alisertib] (max concentration tested 10000 nM)", "DERL-7 (IL-2 2.5 ng/mL)", "%", 72.8),
    ("O=C1NC(=O)/C(=C/c2ccc3nccc(-c4ccncc4)c3c2)S1 (max concentration tested 10000 nM)", "DERL-7 (IL-2 2.5 ng/mL)", "%", 88.2),
    ("NC(=O)c1ccc(I)c([N+](=O)[O-])c1 [Iniparib] (max concentration tested 10000 nM)", "DERL-7 (IL-2 2.5 ng/mL)", "%", 28.1),
    ("CN(C)C(=O)c1cc2cnc(Nc3ccc(N4CCNCC4)cn3)nc2n1C1CCCC1 [NVP-LEE011] (max concentration tested 10000 nM)", "DERL-7 (IL-2 2.5 ng/mL)", "%", 41.6),
    ("CC(=O)c1c(C)c2cnc(Nc3ccc(N4CCNCC4)cn3)nc2n(C2CCCC2)c1=O [Palbociclib] (max concentration tested 10000 nM)", "DERL-7 (IL-2 2.5 ng/mL)", "%", 90.9),
]
